Tested on: HEK293T cells carrying the ATF4 luciferase reporter
Assay: ATF4-Luc assay (in vitro model of vanishing white matter disease)
Type: cell-based
Details: Homo sapiens, HEK-293T; HEK293T cells with ATF4 luciferase reporter, 1 μg/mL tunicamycin, 7 hours, One Glo luminescence

| MOLECULE | EC50 |
| --- | --- |
| CN1CC(C(=O)NC23CCC(NC(=O)COc4ccc(Cl)c(F)c4)(CC2)[C@@H](O)C3)Oc2ccccc21 (stereo partly shown) | 50 to 250 nM |
| CSN1CC(C(=O)NC23CC(NC(=O)COc4ccc(Cl)c(F)c4)(C2)C3)Oc2ccc(Cl)cc21 (stereo not shown) | < 10 nM |
| O=C(O)CC1c2ccccc2CCN1C(=O)NC12CC(NC(=O)COc3ccc(Cl)c(F)c3)(C1)C2 (stereo not shown) | > 2000 nM |
| O=C(COc1ccc(Cl)c(F)c1)NC12CCC(NC(=O)C3CNc4cc(Cl)ccc4O3)(CC1)C[C@@H]2O (stereo partly shown) | < 10 nM |
| O=C(COc1ccc(Cl)c(F)c1)NC12CCC(NC(=O)[C@@H]3CCc4cc(F)ccc4O3)(CC1)C[C@@H]2O | < 10 nM |
| COc1ccc(C(=O)N2CC(C(=O)NC34CC(NC(=O)COc5ccc(Cl)c(F)c5)(C3)C4)Oc3ccc(Cl)cc32)cc1 (stereo not shown) | 250 to 500 nM |
| CCOCCS(=O)(=O)N1CC(C(=O)NC23CC(NC(=O)COc4ccc(Cl)c(F)c4)(C2)C3)Oc2ccc(Cl)cc21 (stereo not shown) | 50 to 250 nM |
| CN1C[C@@H](C(=O)NC23CC(NC(=O)COc4ccc(Cl)c(F)c4)(C2)C3)Oc2ccc(Cl)cc21 (single isomer, unassigned) | < 10 nM |
| O=C(NC12CC(NC(=O)C3COc4cc(Cl)c(Cl)cc4O3)(C1)C2)c1cnc(C(F)F)cn1 (stereo not shown) | 10 to 50 nM |
| O=C(COc1ccc(Cl)c(F)c1)NC12CC(NC(=O)C3CC(NCCO)c4cc(Cl)ccc4O3)(C1)C2 (stereo not shown) | 10 to 50 nM |
